observable: melting point

CC(C)(C)c1ccc(C(=O)Nc2ccc(S(=O)(=O)N[C@H]3CCOC3=O)cc2)cc1 [Compound 16] | 207 to 208 °C
CCCCCCCC(=O)Nc1ccc(S(=O)(=O)N[C@H]2CCOC2=O)cc1 [Compound 6] | 146 to 148 °C
O=C(Nc1ccc(S(=O)(=O)N[C@H]2CCOC2=O)cc1)c1ccc(Br)cc1 [Compound 12] | 112 to 113 °C
O=C(Nc1ccc(S(=O)(=O)N[C@H]2CCOC2=O)cc1)c1ccc(F)cc1 [Compound 17] | 236 to 237 °C
O=C(Nc1ccc(S(=O)(=O)N[C@H]2CCOC2=O)cc1)c1ccc([N+](=O)[O-])cc1 | 257 to 258 °C
CCC(=O)Nc1ccc(S(=O)(=O)N[C@H]2CCOC2=O)cc1 [Compound 1] | 179 to 181 °C
O=C(Nc1ccc(S(=O)(=O)N[C@H]2CCOC2=O)cc1)c1ccc(CCl)cc1 [Compound 15] | 251 to 253 °C
O=C(Cc1ccccc1)Nc1ccc(S(=O)(=O)N[C@H]2CCOC2=O)cc1 | 157 to 158 °C

Q: Kindly indicate its recorded melting point. Item: CCCCCCC(=O)Nc1ccc(S(=O)(=O)N[C@H]2CCOC2=O)cc1 [Compound 5]
Result: 143 to 144 °C

Q: Kindly indicate its recorded melting point. Item: CCCCCC(=O)Nc1ccc(S(=O)(=O)N[C@H]2CCOC2=O)cc1 [Compound 4]
Result: 142 to 143 °C

Q: Kindly indicate its recorded melting point. Item: Cc1cccc(C(=O)Nc2ccc(S(=O)(=O)N[C@H]3CCOC3=O)cc2)c1 [Compound 20]
Result: 193 to 194 °C
